Data credit: PubChem BioAssay

Below: a set of entries, each annotated with reported nuclei count.
ASSAY_DETAILS: reduction of polyQ htt aggregates in cells – imaging, exon1htt(103Q)mCFP cells, high-content imaging, primary screen (AID 483);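 further: compound exposure lasted 3 days before fixation; percent of the per-plate median nuclei count of sample wells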
MEASUREMENT_SETUP: exon1htt(103Q)mCFP cell line, aggregate imaging, at 2 µM; measured here: cell count, toxicity

>  <MOLECULE>
CCN(CC)S(=O)(=O)N1CCC(C(=O)NCC2COc3ccccc3O2)CC1 (configuration not stated)

>  <nuclei count (%)>
88.5

$$$$
>  <MOLECULE>
CCOC(=O)c1nnn(-c2nonc2NC(C)=O)c1C

>  <nuclei count (%)>
98.9

$$$$
>  <MOLECULE>
C1CCC2=NCCCN2CC1

>  <nuclei count (%)>
102

$$$$
>  <MOLECULE>
CC1(C)CC(=O)c2cc(OCC(=O)NCCCN3CCN(c4ccccc4F)CC3)ccc2O1

>  <nuclei count (%)>
91.6

$$$$
>  <MOLECULE>
CC1(C)Cc2noc(N)c2C(C)(C)N1OC(=O)c1ccco1

>  <nuclei count (%)>
87.2

$$$$
>  <MOLECULE>
CCCc1cc(=O)n2[nH]cnc2n1

>  <nuclei count (%)>
80

$$$$
>  <MOLECULE>
CCOC(=O)CCC(=O)c1c(C)oc2ccc(OC)cc12

>  <nuclei count (%)>
98.5

$$$$
>  <MOLECULE>
CCOc1cccc(C(=O)Nc2cccc(-c3nc4ncccc4o3)c2C)c1

>  <nuclei count (%)>
103

$$$$
>  <MOLECULE>
NC(=O)C1(N2CCCCC2)CCN(Cc2ccccc2Cl)CC1

>  <nuclei count (%)>
98

$$$$
>  <MOLECULE>
O=C(c1ccco1)N1CCN(c2c(-c3ccccc3)c3cc(Cl)ccc3[nH]c2=O)CC1

>  <nuclei count (%)>
119

$$$$
>  <MOLECULE>
O=C(CN1C(=O)CCSc2ccccc21)Nc1ccc2c(c1)OCO2

>  <nuclei count (%)>
91.2

$$$$
>  <MOLECULE>
CC(=O)c1ccc(NC(=O)c2noc3c2CCCCC3)cc1

>  <nuclei count (%)>
108

$$$$
>  <MOLECULE>
CC(=O)[C@H]1CC[C@H]2[C@@H]3CCC4=CC(=O)CC[C@]4(C)[C@H]3CC[C@]12C

>  <nuclei count (%)>
74.7

$$$$
>  <MOLECULE>
O=C(O)C1C2CCC(O2)C1C(=O)Nc1cccc(F)c1 (configuration not stated)

>  <nuclei count (%)>
109

$$$$
>  <MOLECULE>
Cc1ccc(S(=O)(=O)NC(C(=O)OCC(=O)NC2CCS(=O)(=O)C2)C(C)C)cc1 (configuration not stated)

>  <nuclei count (%)>
93.4

$$$$
>  <MOLECULE>
COc1ccc(CN(C(=O)c2ccccc2OC)C2CCS(=O)(=O)C2)cc1 (configuration not stated)

>  <nuclei count (%)>
75

$$$$
>  <MOLECULE>
O=C(CP(=O)(CO)CO)c1ccc(Cl)cc1

>  <nuclei count (%)>
119

$$$$
>  <MOLECULE>
COC(=O)c1cc(NC(=O)C2CC=CCC2C(=O)O)cc(C(=O)OC)c1 (configuration not stated)

>  <nuclei count (%)>
108

$$$$
>  <MOLECULE>
CCCN1C(=O)SC(CC(=O)Nc2ccc(Br)cc2)C1=O (configuration not stated)

>  <nuclei count (%)>
96.5

$$$$
>  <MOLECULE>
Cc1ccc(S(=O)(=O)NCCc2ccncc2)cc1

>  <nuclei count (%)>
92.8

$$$$
>  <MOLECULE>
CCCCn1nnnc1SCC(=O)Nc1cccc(C)n1

>  <nuclei count (%)>
112

$$$$
>  <MOLECULE>
CCN1C(=O)/C(=C/N2CCc3ccccc32)SC1=S

>  <nuclei count (%)>
117

$$$$
>  <MOLECULE>
Cc1ccc(N2CCN(C(=O)c3ccccc3Br)CC2)c(C)c1

>  <nuclei count (%)>
91.9

$$$$
>  <MOLECULE>
COc1cccc(NC(=O)Nc2cccs2)c1

>  <nuclei count (%)>
93.5

$$$$
>  <MOLECULE>
Cc1ccccc1NC(=O)c1ccccc1

>  <nuclei count (%)>
104

$$$$
>  <MOLECULE>
CC(C(=O)N1CCc2ccccc21)N1CCc2ccccc2C1 (configuration not stated)

>  <nuclei count (%)>
91.1

$$$$
>  <MOLECULE>
CC(C)CCNC(=O)NC(=O)CN1C(=O)NC2(CCCCC2)C1=O

>  <nuclei count (%)>
106

$$$$
>  <MOLECULE>
COc1ccc(C(=O)Nn2c(SCC(=O)NCC3CCCO3)nc3ccccc3c2=O)cc1 (configuration not stated)

>  <nuclei count (%)>
103

$$$$
>  <MOLECULE>
COC(=O)c1[nH]c2c(c1C)C(=O)CC(c1cccs1)C2 (configuration not stated)

>  <nuclei count (%)>
2

$$$$
>  <MOLECULE>
CCSc1oc(-c2ccco2)nc1S(=O)(=O)c1ccccc1

>  <nuclei count (%)>
107

$$$$
>  <MOLECULE>
CCOC(=O)CSc1nc(C)c(C(=O)OCC)s1

>  <nuclei count (%)>
106

$$$$
>  <MOLECULE>
CCOC(=O)N1CCN(C(=O)Nc2ccc(Cl)cc2)CC1

>  <nuclei count (%)>
99.4

$$$$
>  <MOLECULE>
CCNC(=O)COc1ccc(Br)cc1Cl

>  <nuclei count (%)>
93.8

$$$$
>  <MOLECULE>
O=C(O)c1[nH]nc2c1COc1ccccc1-2

>  <nuclei count (%)>
97

$$$$
>  <MOLECULE>
CCOc1cc(S(=O)(=O)NCc2ccccn2)c(C)cc1C

>  <nuclei count (%)>
112

$$$$
>  <MOLECULE>
COc1ccccc1Nc1nc(N)nc(CN2CCN(c3ccccc3F)CC2)n1

>  <nuclei count (%)>
97.3

$$$$
>  <MOLECULE>
Oc1ccc(N2CCN(C(c3cccnc3)c3nnnn3Cc3ccccc3)CC2)cc1 (configuration not stated)

>  <nuclei count (%)>
118

$$$$
>  <MOLECULE>
O=C(O)c1ccc(-n2nnnc2Oc2ccccc2C(=O)N2CCOCC2)cc1

>  <nuclei count (%)>
53.4

$$$$
>  <MOLECULE>
COc1ccc2c(=O)c3c(=O)n(Cc4ccco4)c(C(C)C)nc3oc2c1

>  <nuclei count (%)>
91.7

$$$$
>  <MOLECULE>
CC(C)=CCSc1nnc(CCNC(=O)OC(C)(C)C)o1

>  <nuclei count (%)>
90

$$$$
>  <MOLECULE>
CCn1cc(C(=O)Nc2cc3c(cc2NC(C)=O)OCCO3)c(=O)c2ccc(C)nc21

>  <nuclei count (%)>
114

$$$$
>  <MOLECULE>
Cc1n[nH]c(C)c1S(=O)(=O)N1CCN(c2ccccn2)CC1

>  <nuclei count (%)>
76

$$$$
>  <MOLECULE>
O=C(CNS(=O)(=O)c1ccc(Br)s1)N1CCCC1

>  <nuclei count (%)>
93.3

$$$$
>  <MOLECULE>
Cc1cccc2cc(C#N)c(NCCNC(=O)NC3CCCCC3)nc12

>  <nuclei count (%)>
85.8

$$$$
>  <MOLECULE>
O=C(c1ccc(Cl)cc1)N(Cc1cccs1)C1CCS(=O)(=O)C1 (configuration not stated)

>  <nuclei count (%)>
110

$$$$
>  <MOLECULE>
CCCc1[nH]nc2c1C(c1cccc(OC(=O)c3ccco3)c1)C(C#N)=C(N)O2 (configuration not stated)

>  <nuclei count (%)>
105

$$$$
>  <MOLECULE>
Cc1nc2ccccc2c2oc(C(=O)NCc3ccccn3)cc12

>  <nuclei count (%)>
65.8

$$$$
